Assay: Autosampler stability at 4 °C of extracted antibiotic-spiked plasma/CAMHB samples
Conditions: plasma extracted samples, 15 h autosampler 4 °C; LQC (nominal as E13)
observation type: Mean accuracy (%), Table S9

molecule: C[C@@H]1O[C@@H]1P(=O)(O)O [Fosfomycin, fosfomycin]
uom: %
Mean accuracy (%), Table S9: 106.3
--
molecule: C[C@]1(Cn2ccnn2)[C@H](C(=O)O)N2C(=O)C[C@H]2S1(=O)=O [Tazobactam, tazobactam]
uom: %
Mean accuracy (%), Table S9: 107.0
--
molecule: C[C@@H](O)[C@H]1C(=O)N2C(C(=O)O)=C(S[C@@H]3CN[C@H](C(=O)N(C)C)C3)[C@H](C)[C@H]12 [Meropenem, meropenem]
uom: %
Mean accuracy (%), Table S9: 109.1
--
molecule: Cn1c(N)c(NC(=O)NCCN)c[n+]1CC1=C(C(=O)O)N2C(=O)[C@@H](NC(=O)/C(=N\OC(C)(C)C(=O)[O-])c3nsc(N)n3)[C@H]2SC1 [Ceftolozane, ceftolozane]
uom: %
Mean accuracy (%), Table S9: 97.5
--
molecule: CCN1CCN(C(=O)N[C@@H](C(=O)N[C@@H]2C(=O)N3[C@@H]2SC(C)(C)[C@@H]3C(=O)O)c2ccccc2)C(=O)C1=O [Piperacillin, piperacillin]
uom: %
Mean accuracy (%), Table S9: 109.9
--
molecule: C[C@H]1COc2c(N3CCN(C)CC3)c(F)cc3c(=O)c(C(=O)O)cn1c23 [Levofloxacin, levofloxacin]
uom: %
Mean accuracy (%), Table S9: 114.0
--
molecule: C[C@H]1[C@H](NC(=O)/C(=N\OC(C)(C)C(=O)O)c2csc(N)n2)C(=O)N1S(=O)(=O)O [Aztreonam, aztreonam]
uom: %
Mean accuracy (%), Table S9: 105.8
